The measurements presented in this section are drawn from the supplement of paper PMC12350171.

Listing of recorded growth AUC normalised to DMSO control by entry.
System: Salmonella enterica typhimurium
Experiment: growth AUC normalised to DMSO control (fraction of control); higher = less growth inhibition, active = hit call of the paper
Settings: 20 µM
Structures can show the parent of a compound that is named as a salt.
measurement-kind: growth AUC normalised to DMSO control

compound: CC(C)(Oc1ccc(Cl)cc1)C(=O)O
measurement-kind: growth AUC normalised to DMSO control
result: 0.995
--
compound: CN(C)CCN(Cc1ccccc1)c1ccccn1 [Tripelennamine hydrochloride]
measurement-kind: growth AUC normalised to DMSO control
result: 1
--
compound: CCCCC(C)(O)C/C=C/[C@H]1[C@H](O)CC(=O)[C@@H]1CCCCCCC(=O)OC (mixture of isomers)
measurement-kind: growth AUC normalised to DMSO control
result: 1.02
--
compound: N=C(N)N/N=C/c1c(Cl)cccc1Cl [Guanabenz acetate]
measurement-kind: growth AUC normalised to DMSO control
result: 0.936
--
compound: CNCCC(Oc1ccc(C(F)(F)F)cc1)c1ccccc1 (centres undefined) [Fluoxetine hydrochloride]
measurement-kind: growth AUC normalised to DMSO control
result: 0.996
--
compound: CCOC(=O)C1=C(C)NC(C)=C(C(=O)OCC)C1c1ccccc1/C=C/C(=O)OC(C)(C)C
measurement-kind: growth AUC normalised to DMSO control
result: 1.01
--
compound: CN1CCN(CCCN2c3ccccc3Sc3ccc(C(F)(F)F)cc32)CC1 [Trifluoperazine dihydrochloride]
measurement-kind: growth AUC normalised to DMSO control
result: 1.03
--
compound: COCCc1ccc(OCC(O)CNC(C)C)cc1 (stereo not drawn) [Metoprolol-(+)-tartrate salt]
measurement-kind: growth AUC normalised to DMSO control
result: 0.996
--
compound: NC(=O)N1c2ccccc2C=Cc2ccccc21 [Carbamazepine]
measurement-kind: growth AUC normalised to DMSO control
result: 0.997
--
compound: CC(=O)OCC(=O)NCCCOc1cccc(CN2CCCCC2)c1 [Roxatidine acetate hydrochloride]
measurement-kind: growth AUC normalised to DMSO control
result: 0.99
--
compound: Nc1nc2c(ncn2COCCO)c(=O)[nH]1
measurement-kind: growth AUC normalised to DMSO control
result: 1.01
--
compound: CC[N+](C)(C)c1cccc(O)c1 [Edrophonium chloride]
measurement-kind: growth AUC normalised to DMSO control
result: 1.01
--
compound: Cc1cccc(C)c1OCC(C)N (centres undefined) [Mexiletine hydrochloride]
measurement-kind: growth AUC normalised to DMSO control
result: 1.01
--
compound: C[C@]12CC[C@H]3C(=CCc4cc(O)ccc43)[C@@H]1CCC2=O
measurement-kind: growth AUC normalised to DMSO control
result: 1.01
--
compound: CC(=O)CCCCn1c(=O)c2c(ncn2C)n(C)c1=O
measurement-kind: growth AUC normalised to DMSO control
result: 1
--
compound: CN1C(=O)CC(c2ccccc2)C1=O (centres undefined) [Phensuximide]
measurement-kind: growth AUC normalised to DMSO control
result: 1.01
--
compound: O=C(c1ccccc1)c1ccc2n1CCC2C(=O)O (centres undefined)
measurement-kind: growth AUC normalised to DMSO control
result: 0.986
--
compound: CC(=O)OCC(=O)[C@@]12N=C(C)O[C@@H]1C[C@H]1[C@@H]3CCC4=CC(=O)C=C[C@]4(C)[C@H]3[C@@H](O)C[C@@]12C
measurement-kind: growth AUC normalised to DMSO control
result: 0.977
--
compound: COc1ccc2[nH]cc(CCNC(C)=O)c2c1
measurement-kind: growth AUC normalised to DMSO control
result: 0.987
--
compound: C1N2CN3CN1CN(C2)C3
measurement-kind: growth AUC normalised to DMSO control
result: 1.02
--
compound: CN[C@@H]1[C@@H](O)[C@@H](O[C@@H]2[C@@H](O)[C@H](O[C@H]3OC(CN)=CC[C@H]3N)[C@@H](N)C[C@H]2N)OC[C@]1(C)O [Sisomicin sulfate]
measurement-kind: growth AUC normalised to DMSO control
result: 1
--
compound: Cc1ncc([N+](=O)[O-])n1CC(C)O (centres undefined)
measurement-kind: growth AUC normalised to DMSO control
result: 0.996
--
compound: O=C(O)COCCN1CCN(C(c2ccccc2)c2ccc(Cl)cc2)CC1 (centres undefined) [Cetirizine dihydrochloride]
measurement-kind: growth AUC normalised to DMSO control
result: 1
--
compound: COc1ccc(OC)c(C(O)CNC(=O)CN)c1 (centres undefined) [Midodrine hydrochloride]
measurement-kind: growth AUC normalised to DMSO control
result: 0.992
--
compound: O=C(O)c1ccccc1C(=O)Nc1ccc(S(=O)(=O)Nc2nccs2)cc1
measurement-kind: growth AUC normalised to DMSO control
result: 1.01
--
compound: CC(=O)N(O)CCCCCNC(=O)CCC(=O)N(O)CCCCCNC(=O)CCC(=O)N(O)CCCCCN [Deferoxamine mesylate]
measurement-kind: growth AUC normalised to DMSO control
result: 1.03
--
compound: C[C@H](CCC(=O)O)[C@H]1CC[C@H]2[C@@H]3[C@@H](O)C[C@@H]4C[C@H](O)CC[C@]4(C)[C@H]3CC[C@]12C
measurement-kind: growth AUC normalised to DMSO control
result: 0.971
--
compound: Cc1c(N)c(=O)n(-c2ccccc2)n1C
measurement-kind: growth AUC normalised to DMSO control
result: 0.996
--
compound: Nc1nc2n[nH]nc2c(=O)[nH]1
measurement-kind: growth AUC normalised to DMSO control
result: 1.01

###

Parameter: growth AUC normalised to DMSO control. Scope: all listed entries.
System: Shigella flexneri
Test: growth AUC normalised to DMSO control (fraction of control); higher = less growth inhibition, active = hit call of the paper
Conditions: 20 µM
Counter-ions that a name gives are not always drawn.
measurement-kind: growth AUC normalised to DMSO control

compound: Cc1cc(=O)oc2cc(O)ccc12 [Hymecromone]
test-target: Shigella flexneri
measurement-kind: growth AUC normalised to DMSO control
result: 1

compound: CC(=O)Nc1ccc(OCC(O)CNC(C)C)cc1 (stereo not given) [Practolol]
test-target: Shigella flexneri
measurement-kind: growth AUC normalised to DMSO control
result: 1.03

compound: C[C@H](O)C(=O)Nc1c(I)c(C(=O)NC(CO)CO)c(I)c(C(=O)NC(CO)CO)c1I [Iopamidol]
test-target: Shigella flexneri
measurement-kind: growth AUC normalised to DMSO control
result: 1.08

compound: NC(=O)NC1NC(=O)NC1=O (stereo not given) [Allantoin]
test-target: Shigella flexneri
measurement-kind: growth AUC normalised to DMSO control
result: 0.996

compound: CN1CCCC(CC2c3ccccc3Sc3ccccc32)C1 (stereo not given) [Metixene hydrochloride]
test-target: Shigella flexneri
measurement-kind: growth AUC normalised to DMSO control
result: 1

compound: CC(C)N1CCN(c2ccc(OCC3COC(Cn4cncn4)(c4ccc(Cl)cc4Cl)O3)cc2)CC1 (stereo not given) [Terconazole]
test-target: Shigella flexneri
measurement-kind: growth AUC normalised to DMSO control
result: 0.982

compound: C#C[C@]1(O)CC[C@H]2[C@@H]3CCC4=CC(=O)CC[C@@H]4[C@H]3CC[C@@]21CC [(D-) Norgestrel]
test-target: Shigella flexneri
measurement-kind: growth AUC normalised to DMSO control
result: 0.938

compound: CN(C)CCC=C1c2ccccc2COc2ccccc21 [Doxepin hydrochloride]
test-target: Shigella flexneri
measurement-kind: growth AUC normalised to DMSO control
result: 0.977

compound: CC(=O)OC(C)C[N+](C)(C)C (stereo not given) [Methacholine chloride]
test-target: Shigella flexneri
measurement-kind: growth AUC normalised to DMSO control
result: 0.939

compound: NCCNCCNCCNCCN [Tetraethylenepentamine pentahydrochloride]
test-target: Shigella flexneri
measurement-kind: growth AUC normalised to DMSO control
result: 0.972

compound: CN(C)CCN1C(=O)c2ccccc2N(C)c2ccccc21 [Dibenzepine hydrochloride]
test-target: Shigella flexneri
measurement-kind: growth AUC normalised to DMSO control
result: 0.972

compound: Cc1nc2ccccn2c(=O)c1CCN1CCC(C(=O)c2ccc(F)cc2)CC1 [Pirenperone]
test-target: Shigella flexneri
measurement-kind: growth AUC normalised to DMSO control
result: 1.03

compound: CN(C)CCCN1c2ccccc2CCc2ccc(Cl)cc21 [Clomipramine hydrochloride]
test-target: Shigella flexneri
measurement-kind: growth AUC normalised to DMSO control
result: 1

compound: COC(=O)Nc1nc2cc(C(=O)c3ccc(F)cc3)ccc2[nH]1 [Flubendazol]
test-target: Shigella flexneri
measurement-kind: growth AUC normalised to DMSO control
result: 0.994

compound: CN[C@H](CC(C)C)C(=O)N[C@H]1C(=O)N[C@@H](CC(N)=O)C(=O)N[C@H]2C(=O)N[C@H]3C(=O)N[C@H](C(=O)N[C@H](C(=O)O)c4cc(O)cc(O)c4-c4cc3ccc4O)[C@H](O)c3ccc(c(Cl)c3)Oc3cc2cc(c3O[C@@H]2O[C@H](CO)[C@@H](O)[C@H](O)[C@H]2O[C@H]2C[C@](C)(N)[C@H](O)[C@H](C)O2)Oc2ccc(cc2Cl)[C@H]1O [Vancomycin hydrochloride]
test-target: Shigella flexneri
measurement-kind: growth AUC normalised to DMSO control
result: 0.984

compound: CCCCNc1ccc(C(=O)OCCOCCOCCOCCOCCOCCOCCOCCOCCOC)cc1 [Benzonatate]
test-target: Shigella flexneri
measurement-kind: growth AUC normalised to DMSO control
result: 0.993

compound: CCCCc1cc2ccccc2c(OCCN(C)C)n1 [Dimethisoquin hydrochloride]
test-target: Shigella flexneri
measurement-kind: growth AUC normalised to DMSO control
result: 1.03

compound: CCc1c2c(nc3ccc(OC(=O)N4CCC(N5CCCCC5)CC4)cc13)-c1cc3c(c(=O)n1C2)COC(=O)[C@]3(O)CC [Irinotecan hydrochloride trihydrate]
test-target: Shigella flexneri
measurement-kind: growth AUC normalised to DMSO control
result: 1.01

compound: CCOC(=O)C(C)(C)Oc1ccc(Cl)cc1 [Clofibrate]
test-target: Shigella flexneri
measurement-kind: growth AUC normalised to DMSO control
result: 1.01

compound: C[C@H](CCC(=O)O)[C@H]1CC[C@H]2[C@@H]3[C@H](O)C[C@@H]4C[C@H](O)CC[C@]4(C)[C@H]3CC[C@]12C [Chenodiol]
test-target: Shigella flexneri
measurement-kind: growth AUC normalised to DMSO control
result: 0.96
